Target: stearoyl-CoA desaturase (SCD) (Mus musculus)
Sequence (P13516 1-355): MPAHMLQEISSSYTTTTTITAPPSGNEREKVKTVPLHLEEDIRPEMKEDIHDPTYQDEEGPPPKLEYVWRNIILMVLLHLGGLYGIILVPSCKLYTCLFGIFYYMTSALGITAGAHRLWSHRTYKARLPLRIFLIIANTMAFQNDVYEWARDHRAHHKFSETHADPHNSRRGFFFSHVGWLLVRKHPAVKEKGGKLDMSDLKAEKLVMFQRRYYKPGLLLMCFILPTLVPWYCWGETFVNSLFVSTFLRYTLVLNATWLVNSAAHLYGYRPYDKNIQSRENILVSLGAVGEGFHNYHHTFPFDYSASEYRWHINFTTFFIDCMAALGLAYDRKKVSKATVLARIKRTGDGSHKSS
Experiment: Stearoyl-CoA desaturase inhibition using mouse liver microsomes (HTS microsomal assay, IC50 follow-up)
Conditions: % SCD enzyme activity remaining at 10 μM test compound
This listing pairs compounds with measured Mouse Microsome 10% remaining @ 10 μM.

>  <compound>
O=C(Nc1ccc(F)cc1)Nc1ccc(N2CCN(C(=O)c3ccccc3C(F)(F)F)CC2)nn1

>  <assayedTarget>
stearoyl-CoA desaturase (SCD) (Mus musculus)

>  <Mouse Microsome 10% remaining @ 10 μM / %>
82

$$$$
>  <compound>
CC(C)(C)OC(=O)N1CCN(c2ccc(C(=O)NCCC3CC3)nn2)CC1

>  <assayedTarget>
stearoyl-CoA desaturase (SCD) (Mus musculus)

>  <Mouse Microsome 10% remaining @ 10 μM / %>
37

$$$$
>  <compound>
O=C(NCCC1CC1)c1ccc(N2CCN(Cc3cc(Cl)ccc3C(F)(F)F)CC2)nn1

>  <assayedTarget>
stearoyl-CoA desaturase (SCD) (Mus musculus)

>  <Mouse Microsome 10% remaining @ 10 μM / %>
7

$$$$
>  <compound>
O=C(NCCC1CC1)c1ccc(N2CCN(C(=O)c3cc(Cl)ccc3C(F)(F)F)CC2)nn1

>  <assayedTarget>
stearoyl-CoA desaturase (SCD) (Mus musculus)

>  <Mouse Microsome 10% remaining @ 10 μM / %>
12

$$$$
>  <compound>
CC(=O)Oc1ccccc1C(=O)N1CCN(c2ccc(C(=O)NCCC3CC3)nn2)CC1

>  <assayedTarget>
stearoyl-CoA desaturase (SCD) (Mus musculus)

>  <Mouse Microsome 10% remaining @ 10 μM / %>
46

$$$$
>  <compound>
O=C(NCCC1CC1)c1ccc(N2CCN(C(=O)CC(O)(C(F)(F)F)C(F)(F)F)CC2)nn1

>  <assayedTarget>
stearoyl-CoA desaturase (SCD) (Mus musculus)

>  <Mouse Microsome 10% remaining @ 10 μM / %>
8

$$$$
>  <compound>
O=C(NCCc1ccccc1)Nc1ccc(N2CCN(C(=O)c3ccccc3C(F)(F)F)CC2)nn1

>  <assayedTarget>
stearoyl-CoA desaturase (SCD) (Mus musculus)

>  <Mouse Microsome 10% remaining @ 10 μM / %>
15

$$$$
>  <compound>
CC(C)CCNC(=O)c1ccc(N2CCN(C(=O)CCC(F)(F)F)CC2)nn1

>  <assayedTarget>
stearoyl-CoA desaturase (SCD) (Mus musculus)

>  <Mouse Microsome 10% remaining @ 10 μM / %>
42

$$$$
>  <compound>
O=C(NCCC1CC1)c1ccc(N2CCN(C(=O)Cc3ccccc3C(F)(F)F)CC2)nn1

>  <assayedTarget>
stearoyl-CoA desaturase (SCD) (Mus musculus)

>  <Mouse Microsome 10% remaining @ 10 μM / %>
10

$$$$
>  <compound>
CC(C)CCNC(=O)c1ccc(N2CCN(C(=O)OC(C)(C)C)CC2)nn1

>  <assayedTarget>
stearoyl-CoA desaturase (SCD) (Mus musculus)

>  <Mouse Microsome 10% remaining @ 10 μM / %>
11

$$$$
>  <compound>
O=C(NCC1CC1)c1ccc(N2CCN(C(=O)c3ccccc3C(F)(F)F)CC2)nn1

>  <assayedTarget>
stearoyl-CoA desaturase (SCD) (Mus musculus)

>  <Mouse Microsome 10% remaining @ 10 μM / %>
49

$$$$
>  <compound>
O=C(Nc1ccc(N2CCN(C(=O)c3ccccc3C(F)(F)F)CC2)nn1)Nc1ccccc1F

>  <assayedTarget>
stearoyl-CoA desaturase (SCD) (Mus musculus)

>  <Mouse Microsome 10% remaining @ 10 μM / %>
73

$$$$
>  <compound>
CC(C)CCNC(=O)c1ccc(N2CCN(C(=O)N3CCN(C)CC3)CC2)nn1

>  <assayedTarget>
stearoyl-CoA desaturase (SCD) (Mus musculus)

>  <Mouse Microsome 10% remaining @ 10 μM / %>
29

$$$$
>  <compound>
CC(C)CCNC(=O)c1ccc(N2CCN(C(=O)c3ccccc3N)CC2)nn1

>  <assayedTarget>
stearoyl-CoA desaturase (SCD) (Mus musculus)

>  <Mouse Microsome 10% remaining @ 10 μM / %>
23

$$$$
>  <compound>
CCCCNC(=O)Nc1ccc(N2CCN(C(=O)c3ccccc3C(F)(F)F)CC2)nn1

>  <assayedTarget>
stearoyl-CoA desaturase (SCD) (Mus musculus)

>  <Mouse Microsome 10% remaining @ 10 μM / %>
13

$$$$
>  <compound>
CC(C)CCNC(=O)c1ccc(N2CCN(C(=O)c3c(C(F)(F)F)nnn3Cc3ccccc3)CC2)nn1

>  <assayedTarget>
stearoyl-CoA desaturase (SCD) (Mus musculus)

>  <Mouse Microsome 10% remaining @ 10 μM / %>
61

$$$$
>  <compound>
CC(c1ccccc1C(F)(F)F)N1CCN(c2ccc(C(=O)NCCC3CC3)nn2)CC1.Cl (stereo not shown)

>  <assayedTarget>
stearoyl-CoA desaturase (SCD) (Mus musculus)

>  <Mouse Microsome 10% remaining @ 10 μM / %>
24

$$$$
>  <compound>
CCCCCNC(=O)Nc1ccc(N2CCN(C(=O)c3ccccc3C(F)(F)F)CC2)nn1

>  <assayedTarget>
stearoyl-CoA desaturase (SCD) (Mus musculus)

>  <Mouse Microsome 10% remaining @ 10 μM / %>
6

$$$$
>  <compound>
O=C(NCCCc1ccc(F)cc1)Nc1ccc(N2CCN(C(=O)c3ccccc3C(F)(F)F)CC2)nn1

>  <assayedTarget>
stearoyl-CoA desaturase (SCD) (Mus musculus)

>  <Mouse Microsome 10% remaining @ 10 μM / %>
14

$$$$
